I'd be grateful if you could share measured z-score for these entries.
- assay: Plasmodium falciparum growth inhibition, primary screen, strain 3D7, DAPI fluorescence, 100 nL (AID 1184);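 note: parasites grown inside human red blood cells in medium with human serum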
- details: P. falciparum 3D7 growth, 3 d, higher = more signal
The answer should be written as a number, with no unit following it.

Briefly, z-score measured for C[C@@H](c1ccccc1)N1C(=O)[C@H]2[C@H]3[C@H](O)[C@H](O)CC(=NO[C@@H]4O[C@H](CO)[C@@H](O)[C@H](O)[C@H]4O)[C@H]3CC[C@H]2C1=O : -0.648

Briefly, z-score measured for C[C@H]1Cc2c(COc3ccccc3)nc3c(c2CO1)CN(CCOc1ccccc1)CC3 : 0.668

Briefly, z-score measured for COc1ccc(O[C@H]2C=C[C@@H](c3ccccc3)O[C@@H]2CON=C(C)CCC(=O)OC[C@H]2O[C@H](c3ccccc3)C=C[C@@H]2Oc2ccc(OC)cc2)cc1 : -1.61

Briefly, z-score measured for CC(CCN1CCCc2nc(C)c(C)cc21)=NO[C@@H](C)c1cc(-c2c(C)cc(C)cc2C)no1 : -1.36

Briefly, z-score measured for CO[C@@H]1C=CCC(=O)N[C@@H](C)C(=O)OC[C@@H](OC)[C@H](C)CCCC(=O)OC[C@H]1C : 0.0984

Briefly, z-score measured for CCOC(=O)[C@H](CC(C)C)NC(=O)CCC1CC(OC(=O)NCc2cccc3ccccc23)CC2(CCCC(COC(=O)NCCCN3CCCC3=O)O2)O1 (stereo not given in full) : -1.92

Briefly, z-score measured for CCOC(=O)[C@H](Cc1ccccc1)NC(=O)CCC1CC(OC(=O)NCc2cccc3ccccc23)CC2(CCCC(COC(=O)NCc3ccccc3)O2)O1 (stereo not given in full) : -1.41

Briefly, z-score measured for C=CC[C@@H]1C=C[C@H](ON=C(C)CCC(=O)OC[C@H]2O[C@H](c3ccccc3)C=C[C@@H]2Oc2ccc(OC)cc2)[C@@H](CO)O1 : 0.298

Briefly, z-score measured for CCC=CCCC(OC(=O)c1ccc(Br)cc1)C1=CCCCC1=O (stereo not given) : -0.713

Briefly, z-score measured for CO[C@H]1COC(=O)CCC[C@@H](C)[C@H](OC)COC(=O)[C@@H](C)NC(=O)CC=C[C@@H]1C : -1.29

Briefly, z-score measured for O=C1[C@H]2[C@H]3[C@H](O)[C@H](O)CC(=NOC[C@@H](O)COCc4ccco4)[C@H]3CC[C@H]2C(=O)N1c1ccc(F)cc1F : -0.644

Briefly, z-score measured for CCOC(=O)NN=C1C[C@@H](O)[C@@H](O)[C@@H]2[C@@H]3C(=O)N([C@@H](C)c4ccccc4)C(=O)[C@@H]3CC[C@H]12 : -0.125

Briefly, z-score measured for O=c1n(Cc2cc3c(cc2Cl)OCO3)c(=O)n2n1CC[C@@H]1C(=NOCc3ccccc3)[C@H]3O[C@H]3[C@@H](O)[C@@H]12 : 0.0783

Briefly, z-score measured for C[C@H]1CC[C@H]2C(=O)OC(CO)CN2[C@@H]1c1ccc(Br)cc1 (stereo not given in full) : -0.296

Briefly, z-score measured for CCN1C(=O)[C@H]2[C@H]3[C@H](O)[C@H](O)CC(=NNC(=O)OCc4ccc(OC)cc4)[C@@H]3CC[C@H]2C1=O : -0.18
